Assay system: T1, recombinant human CEACAM5 (human, UniProt P06731 35-685, limits assumed)
T1 construct: Immobilised by amine coupling on a CM5 chip
T1 sequence (looked up): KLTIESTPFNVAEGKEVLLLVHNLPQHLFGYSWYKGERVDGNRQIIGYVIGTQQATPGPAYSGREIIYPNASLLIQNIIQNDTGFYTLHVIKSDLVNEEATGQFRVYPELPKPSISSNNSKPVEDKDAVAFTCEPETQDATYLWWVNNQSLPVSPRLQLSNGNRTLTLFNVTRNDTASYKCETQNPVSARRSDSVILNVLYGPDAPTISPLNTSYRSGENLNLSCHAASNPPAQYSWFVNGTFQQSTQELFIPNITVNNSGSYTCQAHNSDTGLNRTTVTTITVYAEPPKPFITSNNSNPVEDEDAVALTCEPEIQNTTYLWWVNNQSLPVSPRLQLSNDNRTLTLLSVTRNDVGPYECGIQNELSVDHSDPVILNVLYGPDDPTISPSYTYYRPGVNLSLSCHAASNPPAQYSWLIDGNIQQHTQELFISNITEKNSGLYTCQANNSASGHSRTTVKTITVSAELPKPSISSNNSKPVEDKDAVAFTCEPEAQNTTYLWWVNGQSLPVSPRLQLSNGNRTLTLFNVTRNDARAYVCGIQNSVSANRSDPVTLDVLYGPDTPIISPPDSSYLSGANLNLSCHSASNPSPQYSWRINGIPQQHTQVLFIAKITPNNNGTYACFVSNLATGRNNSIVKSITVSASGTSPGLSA
Protocol: SPR on CEACAM5 (Example 2; method not restated, as Example 1)
Quantity: kon
State the result as a value with its unit after it.

Consider the worked cases shown below.
T039400053 (VHH, Single lysine at 43; 24 used; also called HIS6-ENLYFQS-5GS-A0315007E07(K64R, K75R,)) VHH: EVQLVESGGGVVQPGGSLRLSCAASGLTFSTYTMGWFRQAPGKEREFVAAIIWSGSNTYYADSVRGRFTISRDNARNTVYLQMNSLRPEDTALYYCAAQHFGPIGLTTRGYHYWGQGTLVTVSS : 547000 M⁻¹ s⁻¹
T039400054 (VHH, Single lysine at the C-terminus; also called HIS6-ENLYFQS-5GS-A0315007E07(K43R, K64R, K75R,)-K) VHH: EVQLVESGGGVVQPGGSLRLSCAASGLTFSTYTMGWFRQAPGREREFVAAIIWSGSNTYYADSVRGRFTISRDNARNTVYLQMNSLRPEDTALYYCAAQHFGPIGLTTRGYHYWGQGTLVTVSS : 522000 M⁻¹ s⁻¹

Now look at this one.
Exercise: Look up kon: T039400050 (VHH, No lysine; also called HIS6-ENLYFQS-5GS-A0315007E07(K43R, K64R, K75R)) VHH: EVQLVESGGGVVQPGGSLRLSCAASGLTFSTYTMGWFRQAPGREREFVAAIIWSGSNTYYADSVRGRFTISRDNARNTVYLQMNSLRPEDTALYYCAAQHFGPIGLTTRGYHYWGQGTLVTVSS
Key: 553000 M⁻¹ s⁻¹
